Molecular target: UniProt Q06124
Sequence (Q06124 whole entry, other chains not shown): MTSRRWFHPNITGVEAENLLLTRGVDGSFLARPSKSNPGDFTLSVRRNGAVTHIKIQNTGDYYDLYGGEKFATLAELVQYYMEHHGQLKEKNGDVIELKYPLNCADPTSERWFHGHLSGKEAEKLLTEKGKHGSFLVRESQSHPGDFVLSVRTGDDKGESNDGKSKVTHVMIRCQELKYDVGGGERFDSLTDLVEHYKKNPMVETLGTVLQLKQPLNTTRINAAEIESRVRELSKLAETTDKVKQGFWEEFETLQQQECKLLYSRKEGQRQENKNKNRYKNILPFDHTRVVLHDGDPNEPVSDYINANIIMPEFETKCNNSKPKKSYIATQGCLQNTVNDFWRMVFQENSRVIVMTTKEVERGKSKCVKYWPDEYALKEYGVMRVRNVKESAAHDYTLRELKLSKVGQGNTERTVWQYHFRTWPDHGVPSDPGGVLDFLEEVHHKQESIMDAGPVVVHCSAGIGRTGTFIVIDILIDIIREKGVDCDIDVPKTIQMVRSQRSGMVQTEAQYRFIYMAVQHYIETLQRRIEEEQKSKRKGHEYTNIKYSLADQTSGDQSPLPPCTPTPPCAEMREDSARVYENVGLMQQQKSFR
Assay: DiFMUP fluorescence intensity phosphatase inhibition assay, SHP2-WT activated with IRS-1 peptide
Conditions: DiFMUP at Km (60 μM), IRS-1 peptide activated
REPORTED_METRIC: IC50

Please review the entries below; each comes with its answer.
MOLECULE	IC50
O=C1/C(=C/c2ccc(-c3ccc(O)c(C(=O)N4CCNCC4)c3)o2)Sc2ccccc21 [#19]	≥ 100 µM
O=C(Nc1ccccc1)c1cc(-c2ccco2)ccc1O [#21]	≥ 100 µM
CC(C)NC(=O)c1cc(-c2ccc(/C=C3\Sc4ccccc4C3=O)o2)ccc1O [#13]	20 to 100 µM
O=C1/C(=C/c2ccc(-c3ccc(O)c(-c4nn[nH]n4)c3)o2)Sc2ccccc21 [#04]	1 to 20 µM

# input for lookup
Write down the reported IC50 (system: UniProt Q06124) of O=C(O)c1cccc(-c2cccc(/C=C3\Sc4ccccc4C3=O)c2)c1 [#30]
1 to 20 µM
